Just for reference, patent US20230271949A1 is where these values come from.

Measurement Target: GLP-1R (Homo sapiens, UniProt P43220)
Sequence (P43220 24-463): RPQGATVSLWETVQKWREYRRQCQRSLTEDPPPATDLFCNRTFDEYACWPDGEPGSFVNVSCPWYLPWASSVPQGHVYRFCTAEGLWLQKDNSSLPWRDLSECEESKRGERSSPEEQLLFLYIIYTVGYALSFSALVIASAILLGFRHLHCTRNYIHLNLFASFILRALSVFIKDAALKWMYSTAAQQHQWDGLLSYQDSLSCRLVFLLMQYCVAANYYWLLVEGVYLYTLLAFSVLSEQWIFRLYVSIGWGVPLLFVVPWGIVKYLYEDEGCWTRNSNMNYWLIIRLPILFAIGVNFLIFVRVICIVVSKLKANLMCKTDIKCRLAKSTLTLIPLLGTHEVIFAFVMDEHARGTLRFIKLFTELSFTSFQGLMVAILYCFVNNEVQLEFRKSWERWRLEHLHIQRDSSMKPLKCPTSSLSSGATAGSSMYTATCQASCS
Procedure Summary: GLP-1R agonist cAMP stimulation assay (HTRF cAMP)
Conditions Used: HEK293 cell line expressing GLP-1 target; HTRF cAMP agonist mode, 30 min at RT
pEC50: −log10 of the molar value.
Response key: Criterion met means pEC50 >= 7; Criterion not met means pEC50 < 7.

Compound: Cn1cc2cc(NC(=O)c3ccc4c(c3)nc(CN3CCC(c5cccc(OCc6ccc(Cl)cc6F)n5)CC3)n4C[C@@H]3CCO3)ccc2n1 [Compound 99]
Answer Label: Criterion met
--
Compound: Cc1n[nH]c2ccc(NC(=O)c3ccc4c(c3)nc(CN3CCC(c5cccc6c5OC(C)(c5ccc(Cl)cc5F)O6)CC3)n4CC3CCO3)cc12 (stereo not drawn) [Compound 336]
Answer Label: Criterion met
--
Compound: COCCn1c(CN2CCC(c3cccc(OCc4ccc(Cl)cc4F)n3)CC2)nc2cc(C(=O)NCCCc3ccc(O)cc3)ccc21 [Compound 25]
Answer Label: Criterion not met
--
Compound: Cc1n[nH]c2c(C(F)F)cc(NC(=O)c3ccc4c(c3)nc(CN3CC=C(c5cccc(OCc6ccc(Cl)cc6F)n5)CC3)n4C[C@@H]3CCO3)cc12 [Compound 172]
Answer Label: Criterion met
--
Compound: CCc1cc(NC(=O)c2ccc3c(c2)nc(CN2CC=C(c4cccc(OCc5ccc(Cl)cc5F)n4)CC2)n3C[C@@H]2CCO2)cc2c(C)n[nH]c12 [Compound 170]
Answer Label: Criterion met

###

pEC50 listing for selected molecules.
Measurement Target: GLP-1R (Homo sapiens, UniProt P43220)
Procedure Summary: GLP-1R agonist cAMP stimulation assay (HTRF cAMP)
Conditions Used: HEK293 cell line expressing GLP-1 target; HTRF cAMP agonist mode, 30 min at RT
pEC50: −log10 of the molar value.
Measured Parameter: pEC50

Molecule: Cc1cc(NC(=O)c2ccc3nc(CN4CC=C(c5cccc(OCc6ccc(Cl)cc6F)n5)CC4)n(CC4CCO4)c3c2)cc2c(F)n[nH]c12 (stereo not drawn)
Data Value: 7.34

Molecule: O=C(NCC(=O)N1CC(F)(F)C[C@H]1C(=O)O)c1ccc2c(c1)nc(CN1CCC(c3cccc(OCc4ccc(Cl)cc4F)n3)CC1)n2C[C@@H]1CCO1
Data Value: 9.29

Molecule: Cc1n[nH]c2c(C(F)(F)F)cc(C(=O)Nc3ccc4c(c3)nc(CN3CC=C(c5cccc(OCc6ccc(Cl)cn6)n5)CC3)n4C[C@@H]3CCO3)cc12
Data Value: 9.11

Molecule: Cc1n[nH]c2c(C)cc(NC(=O)c3ccc4c(c3)nc(CN3CCC(c5cccc(OCc6ccc(Cl)cc6F)n5)CC3)n4C[C@@H]3CCO3)cc12
Data Value: 9.01

Molecule: Cc1cc(NC(=O)c2ccc3c(c2)nc(CN2CC=C(c4cccc(OCc5ccc(Cl)cc5F)n4)CC2)n3C[C@@H]2CCO2)cc2c(C(F)F)n[nH]c12
Data Value: 8.99

Molecule: O=C(Nc1ncc2[nH]cnc2n1)c1ccc2c(c1)nc(CN1CC=C(c3cccc(OCc4ccc(Cl)cc4F)n3)CC1)n2C[C@@H]1CCO1
Data Value: 7.63

Molecule: O=C(Nc1nc2[nH]cnc2o1)c1ccc2c(c1)nc(CN1CC=C(c3cccc(OCc4ccc(Cl)cc4F)n3)CC1)n2C[C@@H]1CCO1
Data Value: 7.70

Molecule: O=C(NCC(=O)N1CC(F)(F)C[C@H]1C(=O)O)c1ccc2c(c1)nc(CN1CC=C(c3cccc(OCc4ccc(Cl)cc4F)n3)CC1)n2C[C@@H]1CCO1
Data Value: 9.21

Molecule: O=C(NCC(=O)N1CC[C@H]1C(=O)O)c1ccc2c(c1)nc(CN1CCC(c3cccc(OCc4ccc(Cl)cc4F)n3)CC1)n2C[C@@H]1CCO1
Data Value: 8.17

Molecule: Cc1n[nH]c2c(C)cc(NC(=O)c3ccc4c(c3)nc(CN3CC=C(c5cccc(OCc6ccc(Cl)cn6)n5)CC3)n4C[C@@H]3CCO3)cc12
Data Value: 9.06

Molecule: O=C(Nc1ccc2c(c1)nc(C(F)(F)N1CC=C(c3cccc(OCc4ccc(Cl)cc4F)n3)CC1)n2C[C@@H]1CCO1)c1ccc2[nH]nc(C3CC3)c2c1
Data Value: 7.50

Molecule: C[C@H](NC(=O)c1ccc2c(c1)nc(CN1CC=C(c3cccc(OCc4ccc(Cl)cc4F)n3)CC1)n2C[C@@H]1CCO1)C(=O)N1CC(F)(F)C[C@H]1C(=O)O
Data Value: 9.28

###

Measurement Target: GLP-1R (Homo sapiens, UniProt P43220)
Procedure Summary: GLP-1R agonist cAMP stimulation assay (HTRF cAMP)
Conditions Used: HEK293 cell line expressing GLP-1 target; HTRF cAMP agonist mode, 30 min at RT
Description: cAMP Detection Kit, Cisbio (Cat #62AM4PEJ) The cell line was constructed by WuXi. 2. Methods • a) The compound source plate preparation: • The reference 7-37 was diluted from 500 nM, 4-fold, 10 points in DMSO using Bravo. […]
pEC50: −log10 of the molar value.
Response key: Criterion met means pEC50 >= 9; Criterion not met means pEC50 < 9.

Line Notation: Cc1n[nH]c2c(C)cc(NC(=O)c3ccc4c(c3)nc(CN3CC=C(c5cccc(OCc6ccc(C#N)cc6F)n5)CC3)n4C[C@@H]3CCO3)cc12
Answer Label: Criterion met
//
Line Notation: Cc1n[nH]c2ccc(NC(=O)c3ccc4c(c3)nc(CN3CC=C(c5cccc(OCc6ccc(C#N)c7ccccc67)n5)CC3)n4C[C@@H]3CCO3)cc12
Answer Label: Criterion not met
//
Line Notation: Cc1n[nH]c2c(F)cc(NC(=O)c3ccc4c(c3)nc(CN3CC=C(c5cccc(OCc6ccc(C#N)c7c6ncn7C)n5)CC3)n4C[C@@H]3CCO3)cc12
Answer Label: Criterion not met

###

Measurement Target: UniProt:P43220
Procedure Summary: GLP-1R agonist cAMP stimulation assay (HTRF cAMP)
Conditions Used: HEK293 cell line expressing GLP-1 target; HTRF cAMP agonist mode, 30 min at RT
pEC50: −log10 of the molar value.
pEC50 listing for selected compounds.

Compound: Cc1n[nH]c2cnc(NC(=O)c3ccc4c(c3)nc(CN3CC=C(c5cccc(OCc6ccc(Cl)cc6F)n5)CC3)n4C[C@@H]3CCO3)cc12
Censor Symbol: =
pEC50: 8.01
--
Compound: Cc1cc(-c2cn(-c3ccc4c(c3)nc(CN3CC=C(c5cccc(OCc6ccc(Cl)cc6F)n5)CC3)n4C[C@@H]3CCO3)cn2)[nH]n1
Censor Symbol: =
pEC50: 6.90
--
Compound: Cc1n[nH]c2ccc(C(=O)Nc3ccc4c(c3)nc(C3CC35CCN(c3cccc(OCc6ccc(Cl)cc6F)n3)CC5)n4CC3CCO3)cc12 (stereo not drawn)
Censor Symbol: =
pEC50: 9.04
--
Compound: Cc1n[nH]c2c(C)cc(NC(=O)c3ccc4c(c3)nc(CN3CC=C(c5cccc(OCc6ccc(C#N)c7cc(Cl)oc67)n5)CC3)n4C[C@@H]3CCO3)cc12
Censor Symbol: =
pEC50: 9.68
--
Compound: Cc1[nH]c2ccc(C(=O)Nc3ccc4c(c3)nc(CN3CC=C(c5cccc(OCc6ccc(Cl)cn6)n5)CC3)n4C[C@@H]3CCO3)cc2c1C
Censor Symbol: =
pEC50: 7.99
--
Compound: Cc1n[nH]c2c(C(F)(F)F)cc(C(=O)Nc3ccc4c(c3)nc(CN3CC=C(c5cccc6c5OC(C)(c5ccc(Cl)cc5F)O6)CC3)n4C[C@@H]3CCO3)cc12 (stereo partly drawn)
Censor Symbol: =
pEC50: 8.86
--
Compound: CCc1n[nH]c2ccc(C(=O)Nc3ccc4c(c3)nc(C3CC35CCN(c3cccc(OCc6ccc(Cl)cc6F)n3)CC5)n4CC3CCO3)cc12 (stereo not drawn)
Censor Symbol: =
pEC50: 8.83
--
Compound: Fc1cc(Cl)ccc1COc1cccc(C2=CCN(Cc3nc4cc(-c5nc(-c6c[nH]c(C(F)(F)F)n6)co5)ccc4n3C[C@@H]3CCO3)CC2)n1
Censor Symbol: <
pEC50: 5.00
--
Compound: Cc1n[nH]c2c(Cl)cc(C(=O)Nc3ccc4c(c3)nc(CN3CC=C(c5cccc(OCc6ccc(Cl)cc6F)n5)CC3)n4C[C@@H]3CCO3)cc12
Censor Symbol: =
pEC50: 8.92
--
Compound: O=C(Nc1ccc2[nH]nnc2c1)c1ccc2c(c1)nc(CN1CC=C(c3cccc(OCc4ccc(Cl)cc4F)n3)CC1)n2C[C@@H]1CCO1
Censor Symbol: =
pEC50: 9.12
--
Compound: Cc1cc(-c2cccc3c2OC(C)(c2ccc(Cl)cc2F)O3)cc(F)c1Cc1nc2cc(NC(=O)c3ccc4[nH]nc(C5CC5)c4c3)ccc2n1CC1CCO1 (stereo not drawn)
Censor Symbol: =
pEC50: 8.53
--
Compound: Cc1n[nH]c2ccc(C(=O)Nc3ccc4c(c3)nc(Cc3cc(F)c(-c5cccc6c5OC(C)(c5ccc(Cl)cc5F)O6)cc3F)n4CC3CCO3)cc12 (stereo not drawn)
Censor Symbol: =
pEC50: 8.82
